Hey, just so you know, these numbers are from ChEMBL document CHEMBL1221211.

Exercise: state measured IC50 for each of the compounds provided.
# measurementDescription: Inhibition of bovine Cytochrome b-c1 complex
# Design: species or system Bos taurus
One number for each entry, in nM.

- compound: "CCCCC[C@H]1C[C@@H]2CCC[C@@H](C[C@@H](OC)C[C@@H]3C[C@@H](OC(=O)/C=C\\CCc4coc(/C=C\\CNC(=O)OC)n4)C[C@H](CC(=O)O1)O3)O2"
  unit: "nM"
  reported: 6

Read the next record carefully.
Query: Could you share which IC50 value was measured for CCC[C@@H]1C[C@H](OC)C[C@H](C)C[C@@H]2C[C@@H](OC(=O)/C=C\CCc3coc(/C=C\CNC(=O)OC)n3)C[C@H](CC(=O)O1)O2 [NEOPELTOLIDE] ?
Response: 2
